Target: Beta-3 adrenergic receptor (Homo sapiens)
Sequence (P13945 whole entry): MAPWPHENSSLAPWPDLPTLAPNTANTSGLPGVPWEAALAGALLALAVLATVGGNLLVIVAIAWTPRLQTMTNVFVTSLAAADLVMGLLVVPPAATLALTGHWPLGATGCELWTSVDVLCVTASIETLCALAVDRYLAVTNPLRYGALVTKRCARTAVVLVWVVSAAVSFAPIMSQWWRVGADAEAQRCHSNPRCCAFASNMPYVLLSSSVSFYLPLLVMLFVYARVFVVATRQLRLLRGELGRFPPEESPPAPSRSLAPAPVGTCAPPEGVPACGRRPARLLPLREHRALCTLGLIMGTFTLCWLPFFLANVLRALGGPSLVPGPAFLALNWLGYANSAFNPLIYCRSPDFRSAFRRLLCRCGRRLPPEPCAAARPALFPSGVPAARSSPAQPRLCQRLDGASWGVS
Assay: Stimulated increase in cAMP in CHO cells expressing human beta-3 receptor
assay.metric: EC50 (nM)

[
  {
    "structure.smiles.string": "CC(C)(C)c1ccc(-c2csc(-c3ccc(S(=O)(=O)Nc4ccc(CCNC[C@H](O)c5cccnc5)cc4)cc3)n2)cc1",
    "assay.metric": "EC50",
    "unit": "nM",
    "recorded.number": 2.4
  },
  {
    "structure.smiles.string": "O=S(=O)(Nc1ccc(CCNC[C@H](O)c2cccnc2)cc1)c1ccc(Cc2nc(Cc3ccc4ccccc4c3)cs2)cc1",
    "assay.metric": "EC50",
    "unit": "nM",
    "recorded.number": 12
  },
  {
    "structure.smiles.string": "O=S(=O)(Nc1ccc(CCNC[C@H](O)c2cccnc2)cc1)c1ccc(-c2nc(-c3c[nH]c4ccccc34)cs2)cc1",
    "assay.metric": "EC50",
    "unit": "nM",
    "recorded.number": 4.9
  },
  {
    "structure.smiles.string": "O=S(=O)(Nc1ccc(CCNC[C@H](O)c2cccnc2)cc1)c1ccc(-c2nc(CCCC3CCCC3)cs2)cc1",
    "assay.metric": "EC50",
    "unit": "nM",
    "recorded.number": 26
  },
  {
    "structure.smiles.string": "O=S(=O)(Nc1ccc(CCNC[C@H](O)c2cccnc2)cc1)c1ccc(-c2nc(-c3ccc(O)cc3)cs2)cc1",
    "assay.metric": "EC50",
    "unit": "nM",
    "recorded.number": 45
  },
  {
    "structure.smiles.string": "O=S(=O)(Nc1ccc(CCNC[C@H](O)c2cccnc2)cc1)c1ccc(-c2nc(-c3cc4ccccc4o3)cs2)cc1",
    "assay.metric": "EC50",
    "unit": "nM",
    "recorded.number": 9.1
  },
  {
    "structure.smiles.string": "O=S(=O)(Nc1ccc(CCNC[C@H](O)c2cccnc2)cc1)c1ccc(-c2nc(-c3ccc4ccccc4c3)cs2)cc1",
    "assay.metric": "EC50",
    "unit": "nM",
    "recorded.number": 2
  },
  {
    "structure.smiles.string": "O=S(=O)(Nc1ccc(CCNC[C@H](O)c2cccnc2)cc1)c1ccc(-c2nc(Cc3ccc(F)cc3)cs2)cc1",
    "assay.metric": "EC50",
    "unit": "nM",
    "recorded.number": 6.2
  },
  {
    "structure.smiles.string": "CCCCCCc1csc(-c2ccc(S(=O)(=O)Nc3ccc(CCNC[C@H](O)c4cccnc4)cc3)cc2)n1",
    "assay.metric": "EC50",
    "unit": "nM",
    "recorded.number": 51
  },
  {
    "structure.smiles.string": "CCCCCCc1ccc(-c2csc(-c3ccc(S(=O)(=O)Nc4ccc(CCNC[C@H](O)c5cccnc5)cc4)cc3)n2)cc1",
    "assay.metric": "EC50",
    "unit": "nM",
    "recorded.number": 1.2
  },
  {
    "structure.smiles.string": "O=S(=O)(Nc1ccc(CCNC[C@H](O)c2cccnc2)cc1)c1ccc(-c2nc(-c3ccc(F)cc3)cs2)cc1",
    "assay.metric": "EC50",
    "unit": "nM",
    "recorded.number": 9.5
  },
  {
    "structure.smiles.string": "O=S(=O)(Nc1ccc(CCNC[C@H](O)c2cccnc2)cc1)c1ccc(-c2nc(-c3cccnc3)cs2)cc1",
    "assay.metric": "EC50",
    "unit": "nM",
    "recorded.number": 40
  },
  {
    "structure.smiles.string": "O=S(=O)(Nc1ccc(CCNC[C@H](O)c2cccnc2)cc1)c1ccc(-c2nc(-c3cc4ccccc4s3)cs2)cc1",
    "assay.metric": "EC50",
    "unit": "nM",
    "recorded.number": 5.8
  },
  {
    "structure.smiles.string": "O=S(=O)(Nc1ccc(CCNC[C@H](O)c2cccnc2)cc1)c1ccc(-c2nc(-c3ccc4ncccc4c3)cs2)cc1",
    "assay.metric": "EC50",
    "unit": "nM",
    "recorded.number": 2.7
  },
  {
    "structure.smiles.string": "O=S(=O)(Nc1ccc(CCNC[C@H](O)c2cccnc2)cc1)c1ccc(-c2nc(-c3ccccn3)cs2)cc1",
    "assay.metric": "EC50",
    "unit": "nM",
    "recorded.number": 22
  },
  {
    "structure.smiles.string": "O=S(=O)(Nc1ccc(CCNC[C@H](O)c2cccnc2)cc1)c1ccc(-c2nc(CCc3ccccc3)cs2)cc1",
    "assay.metric": "EC50",
    "unit": "nM",
    "recorded.number": 33
  },
  {
    "structure.smiles.string": "O=S(=O)(Nc1ccc(CCNC[C@H](O)c2cccnc2)cc1)c1ccc(-c2nc(-c3cnc4ccccc4c3)cs2)cc1",
    "assay.metric": "EC50",
    "unit": "nM",
    "recorded.number": 7.3
  },
  {
    "structure.smiles.string": "CCCCCCCCc1csc(Cc2ccc(S(=O)(=O)Nc3ccc(CCNC[C@H](O)c4cccnc4)cc3)cc2)n1",
    "assay.metric": "EC50",
    "unit": "nM",
    "recorded.number": 9.8
  },
  {
    "structure.smiles.string": "O=S(=O)(Nc1ccc(CCNC[C@H](O)c2cccnc2)cc1)c1ccc(-c2nc(Cc3ccc4ccccc4c3)cs2)cc1",
    "assay.metric": "EC50",
    "unit": "nM",
    "recorded.number": 5
  },
  {
    "structure.smiles.string": "CC(=O)NCCCCCc1csc(-c2ccc(S(=O)(=O)Nc3ccc(CCNC[C@H](O)c4cccnc4)cc3)cc2)n1",
    "assay.metric": "EC50",
    "unit": "nM",
    "recorded.number": 50
  },
  {
    "structure.smiles.string": "CC(=O)Nc1ccc(-c2csc(-c3ccc(S(=O)(=O)Nc4ccc(CCNC[C@H](O)c5cccnc5)cc4)cc3)n2)cc1",
    "assay.metric": "EC50",
    "unit": "nM",
    "recorded.number": 45
  },
  {
    "structure.smiles.string": "CCCCCCCCc1csc(-c2ccc(S(=O)(=O)Nc3ccc(CCNC[C@H](O)c4cccnc4)cc3)cc2)n1",
    "assay.metric": "EC50",
    "unit": "nM",
    "recorded.number": 10
  }
]
